system: Candida albicans; test: Antifungal activity against Candida albicans RCMB 005036 assessed as diameter of inhibition zone at 1 mg/mL after 24 to 48 hrs by agar well diffusion method; format: functional; conditions: read-out: DIZ
METRIC_NAME: zone of inhibition at 1000 µg/mL (mm)
# output: bare number, implied unit mm

COc1cc(NS(=O)(=O)c2ccc(NC(=S)Nc3ccc4c(C)cc(=O)oc4c3)cc2)nc(OC)n1: 18.1

Next molecule, please.
# input Answer with the recorded zone of inhibition at 1000 µg/mL of COc1cc(NS(=O)(=O)c2ccc(NC(=S)NC3CCN(Cc4ccccc4)CC3)cc2)nc(OC)n1 only.
# output 12.7

---

Below, each entry is listed alongside its reported MIC.
test system: Candida albicans; assay: Antifungal activity against Candida albicans RCMB 005036 after 24 to 48 hrs by agar well diffusion method; assay type: functional
# output: bare number, implied unit µg/mL

// known answers, use as guide
COc1cc(NS(=O)(=O)c2ccc(NC(=S)Nc3ccc4c(C)cc(=O)oc4c3)cc2)nc(OC)n1: 7.81
C[C@@H]1[C@H](O)[C@@H](C)/C=C/C=C/C=C/C=C/C=C/C=C/C=C/[C@H](O[C@@H]2O[C@H](C)[C@@H](O)[C@H](N)[C@@H]2O)C[C@@H]2O[C@](O)(C[C@@H](O)C[C@@H](O)[C@H](O)CC[C@@H](O)C[C@@H](O)CC(=O)O[C@H]1C)C[C@H](O)[C@H]2C(=O)O: 3.9

# input Answer with the recorded MIC of COc1cc(NS(=O)(=O)c2ccc(NC(=S)Nc3cccc4nsnc34)cc2)nc(OC)n1 only.
# output 3.9

# input Answer with the recorded MIC of COc1cc(NS(=O)(=O)c2ccc(NC(=S)NN3C(=O)CSC3=S)cc2)nc(OC)n1 only.
# output 1.95

# input Answer with the recorded MIC of CCOc1ccc2nc(NC(=S)Nc3ccc(S(=O)(=O)Nc4cc(OC)nc(OC)n4)cc3)sc2c1 only.
# output 7.81

# input Answer with the recorded MIC of COc1cc(NS(=O)(=O)c2ccc(NC(=S)Nc3ccncc3)cc2)nc(OC)n1 only.
# output 125

# input Answer with the recorded MIC of COc1cc(NS(=O)(=O)c2ccc(NC(=S)Nc3nc4c(OC)cccc4s3)cc2)nc(OC)n1 only.
# output 125

# input Answer with the recorded MIC of COc1cc(NS(=O)(=O)c2ccc(NC(=S)Nc3cc(=O)[nH]c(=O)[nH]3)cc2)nc(OC)n1 only.
# output 3.9

# input Answer with the recorded MIC of COc1cc(NS(=O)(=O)c2ccc(NC(=S)NC3CCN(Cc4ccccc4)CC3)cc2)nc(OC)n1 only.
# output 125

---

Below, each entry is listed alongside its reported MIC.
tested on: Candida albicans; assay: Antifungal activity against Candida albicans RCMB 005036 after 24 to 48 hrs by agar well diffusion method; format: functional
Field note: include the unit after the figure.

// known answers, use as guide
COc1cc(NS(=O)(=O)c2ccc(NC(=S)Nc3cc(=O)n(C)c(=O)n3C)cc2)nc(OC)n1: 125 µg/mL
COc1cc(NS(=O)(=O)c2ccc(NC(=S)Nc3cnccn3)cc2)nc(OC)n1: 1.95 µg/mL
COc1cc(NS(=O)(=O)c2ccc(NC(=S)Nc3nc4ccc([N+](=O)[O-])cc4s3)cc2)nc(OC)n1: 250 µg/mL
COc1cc(NS(=O)(=O)c2ccc(NC(=S)Nc3nc4cc(C)c(C)cc4s3)cc2)nc(OC)n1: 3.9 µg/mL

# input Answer with the recorded MIC of COc1cc(NS(=O)(=O)c2ccc(NC(=S)Nc3cc(C)nc4ccccc34)cc2)nc(OC)n1 only.
# output 125 µg/mL

---

assay: Cytotoxicity against human MCF7 cells assessed as decrease in cell viability after 24 hrs by MTT assay; format: functional, cell-based; conditions: MCF7, 24 h
Below, each entry is listed alongside its reported log10(IC50).
Quick note: numbers are log10 of IC50, with µg/mL as the unit.

// known answers, use as guide
COc1cc(NS(=O)(=O)c2ccc(NC(=S)Nc3nc(C)cc(C)n3)cc2)nc(OC)n1: 1.92
COc1cc(NS(=O)(=O)c2ccc(NC(=S)NC3CCN(Cc4ccccc4)CC3)cc2)nc(OC)n1: 0.24
CCn1c2ccccc2c2cc(NC(=S)Nc3ccc(S(=O)(=O)Nc4cc(OC)nc(OC)n4)cc3)ccc21: 2.16
CCSc1nnc(NC(=S)Nc2ccc(S(=O)(=O)Nc3cc(OC)nc(OC)n3)cc2)s1: 2.08
COc1cc(NS(=O)(=O)c2ccc(NC(=S)Nc3cc(=O)[nH]c(=O)[nH]3)cc2)nc(OC)n1: 1.57
COc1cc(NS(=O)(=O)c2ccc(NC(=S)Nc3nc4c(OC)cccc4s3)cc2)nc(OC)n1: 1.68
COc1cc(NS(=O)(=O)c2ccc(NC(=S)Nc3cc(=O)n(C)c(=O)n3C)cc2)nc(OC)n1: 1.98
COc1cc(NS(=O)(=O)c2ccc(NC(=S)Nc3cccnc3)cc2)nc(OC)n1: 2.23

# input Answer with the recorded log10(IC50) of COc1cc(NS(=O)(=O)c2ccc(NC(=S)Nc3nc4ccc([N+](=O)[O-])cc4s3)cc2)nc(OC)n1 only.
# output 0.97

# input Answer with the recorded log10(IC50) of COc1cc(NS(=O)(=O)c2ccc(NC(=S)Nc3ccc4c(C)cc(=O)oc4c3)cc2)nc(OC)n1 only.
# output 1.55

# input Answer with the recorded log10(IC50) of COc1cc(NS(=O)(=O)c2ccc(NC(=S)Nc3cc(C)nc4ccccc34)cc2)nc(OC)n1 only.
# output 1.84

# input Answer with the recorded log10(IC50) of COc1cc(NS(=O)(=O)c2ccc(NC(=S)Nc3nc4cc(C)c(C)cc4s3)cc2)nc(OC)n1 only.
# output 1.97

# input Answer with the recorded log10(IC50) of COc1cc(NS(=O)(=O)c2ccc(NC(=S)Nc3ccc4c(c3)oc(=O)c3ccccc34)cc2)nc(OC)n1 only.
# output 1.61

# input Answer with the recorded log10(IC50) of COc1cc(NS(=O)(=O)c2ccc(NC(=S)NN3C(=O)CSC3=S)cc2)nc(OC)n1 only.
# output 1.68

# input Answer with the recorded log10(IC50) of COc1cc(NS(=O)(=O)c2ccc(NC(=S)Nc3ccncc3)cc2)nc(OC)n1 only.
# output 2.23

---

test system: Candida albicans; assay: Antifungal activity against Candida albicans RCMB 005036 assessed as diameter of inhibition zone at 1 mg/mL after 24 to 48 hrs by agar well diffusion method; format: functional; conditions: read-out: DIZ
Assign 1 (yes) to entries whose zone of inhibition at 1000 µg/mL meets or exceeds 20 mm; assign 0 (no) to the rest.

Solved cases below.
COc1cc(NS(=O)(=O)c2ccc(NC(=S)Nc3cc(C)nc4ccccc34)cc2)nc(OC)n1: 0 (no)
COc1cc(NS(=O)(=O)c2ccc(NC(=S)Nc3nc4cc(C)c(C)cc4s3)cc2)nc(OC)n1: 1 (yes)
COc1cc(NS(=O)(=O)c2ccc(NC(=S)Nc3ccc4c(c3)oc(=O)c3ccccc34)cc2)nc(OC)n1: 0 (no)
COc1cc(NS(=O)(=O)c2ccc(NC(=S)Nc3nc4c(OC)cccc4s3)cc2)nc(OC)n1: 0 (no)

# input Kindly determine if zone of inhibition at 1000 µg/mL recorded for COc1cc(NS(=O)(=O)c2ccc(NC(=S)NN3C(=O)CSC3=S)cc2)nc(OC)n1 is above or exactly 20 mm.
# output 1 (yes)

# input Kindly determine if zone of inhibition at 1000 µg/mL recorded for CCOc1ccc2nc(NC(=S)Nc3ccc(S(=O)(=O)Nc4cc(OC)nc(OC)n4)cc3)sc2c1 is above or exactly 20 mm.
# output 0 (no)

# input Kindly determine if zone of inhibition at 1000 µg/mL recorded for COc1cc(NS(=O)(=O)c2ccc(NC(=S)Nc3cnccn3)cc2)nc(OC)n1 is above or exactly 20 mm.
# output 1 (yes)

# input Kindly determine if zone of inhibition at 1000 µg/mL recorded for CCSc1nnc(NC(=S)Nc2ccc(S(=O)(=O)Nc3cc(OC)nc(OC)n3)cc2)s1 is above or exactly 20 mm.
# output 0 (no)

# input Kindly determine if zone of inhibition at 1000 µg/mL recorded for COc1cc(NS(=O)(=O)c2ccc(NC(=S)Nc3cc(=O)n(C)c(=O)n3C)cc2)nc(OC)n1 is above or exactly 20 mm.
# output 0 (no)

# input Kindly determine if zone of inhibition at 1000 µg/mL recorded for COc1cc(NS(=O)(=O)c2ccc(NC(=S)Nc3ccncc3)cc2)nc(OC)n1 is above or exactly 20 mm.
# output 0 (no)

# input Kindly determine if zone of inhibition at 1000 µg/mL recorded for CCn1c2ccccc2c2cc(NC(=S)Nc3ccc(S(=O)(=O)Nc4cc(OC)nc(OC)n4)cc3)ccc21 is above or exactly 20 mm.
# output 0 (no)
